# system-name: Bcl-XL (Homo sapiens)
# Construct: mCerulean3-Bcl-XL fusion expressed in MCF-7 cells
# Sequence (Q07817 whole entry, the tested form may be a part): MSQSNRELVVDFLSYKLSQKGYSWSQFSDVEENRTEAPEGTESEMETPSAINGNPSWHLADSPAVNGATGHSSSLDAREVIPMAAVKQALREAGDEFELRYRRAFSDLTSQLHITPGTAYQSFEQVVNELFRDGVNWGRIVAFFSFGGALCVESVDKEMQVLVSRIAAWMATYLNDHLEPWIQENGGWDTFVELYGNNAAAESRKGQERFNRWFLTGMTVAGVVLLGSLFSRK
# assay-remarks: live-cell FLIM-FRET displacement of Venus-Bad from mCer3-Bcl-XL in MCF-7 cells
measured-parameter: IC50

Item under review: CN(C)CC#Cc1ccc(OCCCc2sc(N3CCc4cccc(C(=O)Nc5nc6ccccc6s5)c4C3)nc2C(=O)O)c(F)c1 . Reported IC50? < 1250 nM
